assay: solvent given as SMILES; details: in CS(C)=O
quantity: emission maximum (nm)
Number in nm, nothing else.

Asked: State the recorded emission maximum for this entry: "CCN(CC)c1ccc2cc(-c3cc(SC)c(C#N)c(=O)o3)c(=O)oc2c1"
Given back: 593

Asked: Subsequent entry: "COc1ccc(-n2c3ccccc3c3cc(/C=C/C(=C(C#N)C#N)c4ccccc4)ccc32)cc1"
Given back: 601

Asked: Subsequent entry: "CN(C)c1ccc(/C=C/c2cc(/C=C/c3ccc(N(C)C)cc3)nc(/C=C/c3ccc(N(c4ccccc4)c4ccccc4)cc3)n2)cc1"
Given back: 596

* * *

assay: solvent given as SMILES; conditions: in CC1CCCO1
Exercise: state measured emission maximum for each of the molecules provided.
Number in nm, nothing else.

Asked: State the recorded emission maximum for this entry: "COC(=O)c1ccc(C#Cc2ccc(N(C)C)cc2)cc1"
Given back: 464.51

Asked: Subsequent entry: COC(=O)C(Cc1ccc2oc(-c3ccc(Nc4ccccc4)cc3)nc2c1)NC(=O)OC(C)(C)C (stereo not drawn)
Given back: 425.01

Asked: Subsequent entry: "Cn1c2nc(=O)[nH]c(=O)c-2nc2ccccc21"
Given back: 489

* * *

assay: solvent given as SMILES; settings: in ClCCl
quantity: emission maximum

Asked: State the recorded emission maximum for this entry: "CCn1c2ccc(-c3ccc(-c4cccs4)s3)cc2c2cc(-c3ccc(-c4cccs4)s3)ccc21"
Given back: 430 nm

Asked: Subsequent entry: "O=C1CCCC2=C1CC1=C(CCCC1=O)N2NC(=O)c1ccc(O)cc1"
Given back: 436 nm

Asked: Subsequent entry: CCCCC(CC)Cn1c2cc(C#N)c(-c3ccc(N(c4ccccc4)c4ccccc4)cc3)cc2c2cc(-c3ccc(N(c4ccccc4)c4ccccc4)cc3)c(C#N)cc21 (stereo not drawn)
Given back: 513 nm

Asked: Subsequent entry: "CCC1(CC)c2cc(C=O)ccc2-c2ccc(N(C)C)cc21"
Given back: 491 nm

Asked: Subsequent entry: CCCCC(CC)Cn1c2cc(C#N)ccc2c2cc(-c3ccc(N(c4ccccc4)c4ccccc4)cc3)c(C#N)cc21 (stereo not drawn)
Given back: 517 nm

Asked: Subsequent entry: "CC1=C(C#Cc2ccc([Si](c3ccccc3)(c3ccccc3)c3ccccc3)cc2)C(C)=[N+]2C1=C(c1ccccc1)c1c(C)c(C#Cc3ccc([Si](c4ccccc4)(c4ccccc4)c4ccccc4)cc3)c(C)n1[B-]2(F)F"
Given back: 600 nm

Asked: Subsequent entry: "COc1c2ccccc2c(-c2ccccc2)c2ccccc12"
Given back: 426 nm

Asked: Subsequent entry: "CC(C)(C)c1cc(-c2ccc3c(-c4cc(C(C)(C)C)cc(C(C)(C)C)c4)cc4c5cc(-c6cc(C(C)(C)C)cc(C(C)(C)C)c6)ccc5c(-c5cc(C(C)(C)C)cc(C(C)(C)C)c5)cc4c3c2)cc(C(C)(C)C)c1"
Given back: 401 nm

Asked: Subsequent entry: "O=C1C2=C(O[B-](F)(F)[n+]3c2ccc2ccccc23)c2ccc(N3CCOCC3)c3cccc1c23"
Given back: 544 nm

Asked: Subsequent entry: "c1ccc(-c2nc(-c3c[nH]c4ccccc34)n3ccccc23)cc1"
Given back: 506 nm

Asked: Subsequent entry: "COc1ccc(C#Cc2c3ccccc3c(C#Cc3ccc(OC)cc3)c3cc4sc(C)cc4cc23)cc1"
Given back: 538 nm

Asked: Subsequent entry: "CC(C)(C)NC(=O)c1cccc2ccc3c4ccc(Cl)cc4c4cc(Cl)ccc4c3c12"
Given back: 415 nm

Asked: Subsequent entry: "Oc1ccccc1/C=N/c1ccc(Cn2cncn2)cc1"
Given back: 363 nm

* * *

assay: solvent given as SMILES; conditions: in O
emission maximum below 500 nm gives Not met; emission maximum at or above it gives Met.

Asked: Given the entry "N#Cc1cc2ccc(O)cc2oc1=O" , answer whether its emission maximum meets or surpasses 500 nm.
Given back: Not met

Asked: Subsequent entry: "O=S(=O)([O-])c1ccc([O-])c2ccccc12"
Given back: Not met

Asked: Subsequent entry: Cc1cc(=O)oc2cc(/[NH+]=C/C=C3/C=C(C(=O)O)NC(C(=O)O)C3)ccc12 (centres undefined)
Given back: Met

Asked: Subsequent entry: "CC[N+](CC)=c1ccc2c(C(F)(F)F)c3c(oc-2c1)-c1ccc(N(C)C)cc1CC3"
Given back: Met

Asked: Subsequent entry: O=C(O)C1=C/C(=C/C=[NH+]/c2ccc3c(C(F)(F)F)cc(=O)oc3c2)CC(C(=O)O)N1 (centres undefined)
Given back: Met

Asked: Subsequent entry: "CSc1ccc2c(c1)N(CCCN1CCN(C)CN1C)c1ccccc1S2"
Given back: Not met

Asked: Subsequent entry: "CCOC(=O)CC[N+]1=c2cc3c(cc2CCC1)=Cc1c(c2cc4c5c(c2oc1=O)CCCN5CCC4)O3"
Given back: Met

Asked: Subsequent entry: "CCN(CC)c1ccc2c(c1)oc(=O)c1c(-c3ccccc3C(=O)O)c3ccc(=[N+](CC)CC)cc-3oc12"
Given back: Met

Asked: Subsequent entry: "CC[n+]1c(-c2ccccc2)c2cc(NC(=O)N[C@H]3C[C@@H]([NH3+])[C@H](O)[C@@H](O)[C@@H]3O)ccc2c2ccc(NC(=O)N[C@@H]3C[C@H]([NH3+])[C@@H](O)[C@@H](O)[C@H]3O)cc21"
Given back: Met

Asked: Subsequent entry: "CCOC(=O)c1ccccc1-c1c2ccc(=[N+](CC)CC)cc-2oc2c1c(=O)oc1cc(N(CC)CC)ccc12"
Given back: Met

Asked: Subsequent entry: "CCCCCCCCCCCCOc1cc2cc(N(C)C)ccc2cc1C=C(C#N)C#N"
Given back: Met

Asked: Subsequent entry: "CC(=O)n1cc(/C=C/c2ccc([N+](=O)[O-])cc2)c2ccccc21"
Given back: Met

Asked: Subsequent entry: "COc1ccccc1C1=C2C=CC(=[N+](C)C)C=C2[Si](C)(C)c2cc(N(C)C)ccc21"
Given back: Met

Asked: Subsequent entry: "COc1ccc(-c2cc(N3CCCCC3)c(C#N)c3c2-c2cccc4cccc-3c24)cc1"
Given back: Met

Asked: Subsequent entry: CC1(CCCCC(=O)NCCCCCCO)C(/C=C/C=C/C=C2/N(CCCS(=O)(=O)[O-])c3ccc(S(=O)(=O)[O-])cc3C2(C)C)=[N+](CCCS(=O)(=O)[O-])c2ccc(S(=O)(=O)[O-])cc21 (centres undefined)
Given back: Met

Asked: Subsequent entry: "N#CC(C#N)=Cc1ccc(-c2ccc(-c3nc4ccccc4s3)c(O)c2)s1"
Given back: Met

Asked: Subsequent entry: COc1ccc(C2CC(c3ccc(O)cc3)=NN2c2ccc(S(N)(=O)=O)cc2)cc1 (centres undefined)
Given back: Not met

Asked: Subsequent entry: "CCOC(=O)CCCCCn1c2ccc(N)cc2c(=O)c2cc(N)ccc21"
Given back: Met

Asked: Subsequent entry: "NC(=O)C1=CN([C@H]2C[C@H](O)[C@@H](COP(=O)([O-])OP(=O)([O-])OC[C@H]3O[C@@H](n4cnc5c(N)ncnc54)C[C@@H]3O)O2)C=CC1"
Given back: Not met

Asked: Subsequent entry: "N#C[Se]CCCCCOc1ccc2ccc(=O)oc2c1"
Given back: Not met

Asked: Subsequent entry: "CN1/C(=C/C=C(/C=C/C2=[N+](C)c3ccccc3C2(C)C)c2ccc(C(F)(F)F)cc2)C(C)(C)c2ccccc21"
Given back: Met

Asked: Subsequent entry: "CN(C)c1ccc2c(c1)[Si](C)(C)C1=CC(=[N+](C)C)C=CC1=C2C#Cc1ccccc1"
Given back: Met

Asked: Subsequent entry: "Nc1ccc(-c2ccc(N)cc2)cc1"
Given back: Not met

Asked: Subsequent entry: "CN(C)c1ccc2c(c1)C(C)(C)C1=CC(=[N+](C)C)C=CC1=C2"
Given back: Met

Asked: Subsequent entry: "CCN(CC)c1ccc2c(c1)C(C)(C)C(=O)C=C2"
Given back: Met

* * *

Exercise: state measured emission maximum for each of the compounds provided.
assay: solvent given as SMILES; conditions: in CO
Number in nm, nothing else.

Asked: State the recorded emission maximum for this entry: "Cc1ccc(-n2c3ccccc3c3cc(C=C(C#N)C#N)ccc32)cc1"
Given back: 519

Asked: Subsequent entry: "O=C1CCCC2=C1CC1=C(CCCC1=O)N2NC(=O)c1ccc(O)cc1"
Given back: 449

Asked: Subsequent entry: "Oc1ccccc1/C=N/N=C/c1ccccc1O"
Given back: 573.07

Asked: Subsequent entry: "CCN1C(=CC2=C([O-])C(=CC3=[N+](CC)c4ccccc4C3(C)C)C2=O)C(C)(C)c2ccccc21"
Given back: 644

Asked: Subsequent entry: "N#CC(C#N)=C(/C=C/c1cn(-c2ccccc2)nc1-c1ccccc1)c1ccccc1"
Given back: 496

Asked: Subsequent entry: "c1ccc(-c2nc(-c3c[nH]c4ccccc34)n3ccccc23)cc1"
Given back: 500

Asked: Subsequent entry: "Cc1ccc(-c2ccc(/C=C/c3cccn3C)cn2)nc1"
Given back: 507
